All values here come from patent US20160138114A1.

# System: H1651
# METHOD_DESCRIPTION: BMN673 sensitivity (cell growth) in cancer cell line
# Assay type: cell-based, human
# CONDITION_PARAMETERS: Homo sapiens, NCI-H1651; H1651, Lung, 1q21 AMP
# Protocol: This example illustrates that CHD1L amplification correlated with overexpression of CHD1L protein. […] CHD1L protein expression in the NSCLC and breast cancer cell lines was assayed by Western blot with antibodies against CHD1L. […] HCC1937 was used as a negative control for CHD1L protein expression, as the cell line carries a loss of heterozygosity (LOH) of CHD1L. Each of these cell lines was also assayed for sensitivity or resistance to inhibition of PARP by BMN673. […]
ENDPOINT: IC50 (nM)

SMILES_RECORD	ENDPOINT	NUMERIC_RESULT
Cn1ncnc1[C@H]1c2n[nH]c(=O)c3cc(F)cc(c23)N[C@@H]1c1ccc(F)cc1	IC50	6.31

---

# System: 184B5 parental cell line
# METHOD_DESCRIPTION: BMN673 treatment of CHD1L knock-in study, parental line
# Assay type: cell-based
# CONDITION_PARAMETERS: Homo sapiens, low CHD1L protein expression

SMILES_RECORD	IC50
Cn1ncnc1[C@H]1c2n[nH]c(=O)c3cc(F)cc(c23)N[C@@H]1c1ccc(F)cc1	~1 µM

---

# Test system: H1568
# METHOD_DESCRIPTION: BMN673 sensitivity (cell growth) in cancer cell line
# Type: cell-based, human
# CONDITION_PARAMETERS: Homo sapiens, NCI-H1568; H1568, Lung, 1q21 AMP

SMILES_RECORD	MEASURE_UNIT	IC50
Cn1ncnc1[C@H]1c2n[nH]c(=O)c3cc(F)cc(c23)N[C@@H]1c1ccc(F)cc1	µM	0.0498
